- System: MDR E. faecalis
- protocolDescription: microbe, parasite or virus in culture
- recordedConditions: CLSI broth microdilution; CAMHB with 50 mg/L Ca2+, 10 mg/L Mg2+; 5 × 10^5 CFU/ml; 18 h 37 °C; triplicate; strain ATCC 51575
Ends that are not written are not given here.
parameterMeasured: Minimum inhibitory concentrations, MDR E. faecalis (µM)
One number for each entry, in µM.

Below, each entry is followed by its recorded Minimum inhibitory concentrations, MDR E. faecalis result.
substance: WLLWIALRKK-NH2 [WCopW]
assaySystem: MDR E. faecalis
measuredValue: 10
//
substance: WLLLLWRRR-NH2 [AcWL-3]
assaySystem: MDR E. faecalis
measuredValue: 5

Could you report Minimum inhibitory concentrations, MDR E. faecalis for every entry in the following list?
1. WLVWIWRRR-NH2 [LWCopW29]
2. WLVWVWRRR-NH2 [Hybrid-3]
3. WLLLLLRRR-NH2 [AcWL-1]

1. 5
2. 10
3. 10
